Parameter EC50: see the listing below.
# tgt: human MCH receptor expressed from the open reading frame cDNA SEQ. ID. NO. 1 in 293-AEQ17 cells (human, UniProt Q99705 1-353)
# Sequence (Q99705 whole entry): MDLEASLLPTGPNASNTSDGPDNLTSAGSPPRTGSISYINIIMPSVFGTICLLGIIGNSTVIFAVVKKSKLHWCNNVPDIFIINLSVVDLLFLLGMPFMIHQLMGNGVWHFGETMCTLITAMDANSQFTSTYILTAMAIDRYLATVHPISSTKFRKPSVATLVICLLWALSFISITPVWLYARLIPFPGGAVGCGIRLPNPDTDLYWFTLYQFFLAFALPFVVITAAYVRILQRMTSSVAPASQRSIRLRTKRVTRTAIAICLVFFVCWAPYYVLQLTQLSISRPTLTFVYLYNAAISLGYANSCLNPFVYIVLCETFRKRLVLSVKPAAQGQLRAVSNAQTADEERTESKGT
# test: cell-based or functional assay
Bridges are numbered along the chain shown (N, C = ends).
Report as: number unit

Worked set:
binder	value-kind	observed-value
Ac-RCMLGRVWRPC-NH2 (disulfide 2-11; SMILES CSCC[C@@H]1NC(=O)[C@@H](NC(=O)[C@H](CCCNC(=N)N)NC(C)=O)CSSC[C@@H](C(N)=O)NC(=O)[C@@H]2CCCN2C(=O)[C@H](CCCNC(=N)N)NC(=O)[C@H](Cc2c[nH]c3ccccc23)NC(=O)[C@H](C(C)C)NC(=O)[C@H](CCCNC(=N)N)NC(=O)CNC(=O)[C@H](CC(C)C)NC1=O, ID; NO; 7 peptide; MCH position numbering) [MCH analog SEQ. ID. NO. 63 (position 13: Trp)]	EC50	890 nM
Ac-RCMLGRVYRPC-NH2 (disulfide 2-11 (inferred), Corresponds to MCH positions 6-16; also called ID; NO; 7 MCH analog) [truncated MCH analog SEQ. ID. NO. 7: Ac-Arg-Cys-Met-Leu-Gly-Arg-Val-Tyr-Arg-Pro-Cys-amide]	EC50	20 nM
Ac-RCMLGRVFRPC-NH2 (disulfide 2-11; SMILES CSCC[C@@H]1NC(=O)[C@@H](NC(=O)[C@H](CCCNC(=N)N)NC(C)=O)CSSC[C@@H](C(N)=O)NC(=O)[C@@H]2CCCN2C(=O)[C@H](CCCNC(=N)N)NC(=O)[C@H](Cc2ccccc2)NC(=O)[C@H](C(C)C)NC(=O)[C@H](CCCNC(=N)N)NC(=O)CNC(=O)[C@H](CC(C)C)NC1=O, ID; NO; 7 peptide; MCH position numbering) [MCH analog SEQ. ID. NO. 62 (position 13: Phe)]	EC50	46 nM

Data request: Which EC50 value belongs to Ac-RCMLGRVHRPC-NH2 (disulfide 2-11; SMILES CSCC[C@@H]1NC(=O)[C@@H](NC(=O)[C@H](CCCNC(=N)N)NC(C)=O)CSSC[C@@H](C(N)=O)NC(=O)[C@@H]2CCCN2C(=O)[C@H](CCCNC(=N)N)NC(=O)[C@H](Cc2c[nH]cn2)NC(=O)[C@H](C(C)C)NC(=O)[C@H](CCCNC(=N)N)NC(=O)CNC(=O)[C@H](CC(C)C)NC1=O, ID; NO; 7 peptide; MCH position numbering) [MCH analog SEQ. ID. NO. 64 (position 13: His)] ?
Data returned: 3400 nM
